biological target: TBK1 (Homo sapiens, UniProt Q9UHD2); construct: All protein kinases were of human origin and encoded full length proteins, unless indicated otherwise; His6; made in house; host or cells: insect Sf21 cells; assay: TBK1 protein kinase assay ([γ-33P]ATP, P81 filterplates); format: biochemical; conditions: 50 μM ATP; read-out: Potency (TBK1 IC50 potency score)
Counter-ions that a name gives are not always drawn.
ASSAY METRIC: IC50

In [3]: df
Out[3]:
                                   compound          result
0  Cn1cc(-c2ccc(Nc3ncc(C4CC4)c(NCCCNC(=O)C4CCC4)n3)cn2)cn1        < 100 nM
1  CC(=O)Nc1cccc(Nc2ncc(C3CC3)c(NCCCNC(=O)C3CCCC3)n2)c1        < 100 nM
2  O=C(NCCCNc1nc(Nc2ccc(CN3CCC(F)(F)CC3)nc2)ncc1C1CC1)C1CCC1        < 100 nM
3  CC(=O)Nc1cccc(Nc2ncc(C3CC3)c(NCCCN3CCCC3=O)n2)c1 [Example 39, trifluoroacetate salt]  100 to 1000 nM
4  CN(C)CCN(C)C(=O)c1ccc(Nc2ncc(C3CC3)c(NCCCNC(=O)C3CCC3)n2)cc1        < 100 nM

# input compound: CN1CCN(c2cccc(Nc3ncc(C4CC4)c(NCCCNC(=O)C4CCC4)n3)c2)CC1 [Example 91, Trifluoroacetic acid salt] ; wanted: its IC50
< 100 nM

Look up IC50 for this compound: O=C(NCCCNc1nc(Nc2ccc(F)c(F)c2)ncc1C1CC1)C1CCC1
< 100 nM

* * *

molecular target: TBK1 (Homo sapiens, UniProt Q9UHD2); construct: All protein kinases were of human origin and encoded full length proteins, unless indicated otherwise; His6; made in house; host or cells: insect Sf21 cells; test: TBK1 protein kinase assay ([γ-33P]ATP, P81 filterplates); type: biochemical; conditions: 50 μM ATP; read-out: Potency (TBK1 IC50 potency score)
ASSAY METRIC: IC50

Please review the following examples before continuing.
>>> df
                                   compound          result
0  N#Cc1cccc(Nc2ncc(C3CC3)c(NCCCNC(=O)c3cccs3)n2)c1 [Example 61]  100 to 1000 nM
1  O=C(NCCCNc1nc(Nc2cccc(OCCN3CCOCC3)c2)ncc1C1CC1)C1CCC1 [Example 143]        < 100 nM

Let's switch to this compound now.
Can you share its IC50? I mean this compound: O=C(NCCCNc1nc(Nc2cnc(N3CCOCC3)nc2)ncc1C1CC1)C1CCC1 [Example 152]
< 100 nM

* * *

Each record here notes measured pIC50.
Target: TBK1 (Homo sapiens, UniProt Q9UHD2)
Construct: All protein kinases were of human origin and encoded full length proteins, unless indicated otherwise; His6; made in house; host or cells: insect Sf21 cells
Sequence (Q9UHD2 1-729): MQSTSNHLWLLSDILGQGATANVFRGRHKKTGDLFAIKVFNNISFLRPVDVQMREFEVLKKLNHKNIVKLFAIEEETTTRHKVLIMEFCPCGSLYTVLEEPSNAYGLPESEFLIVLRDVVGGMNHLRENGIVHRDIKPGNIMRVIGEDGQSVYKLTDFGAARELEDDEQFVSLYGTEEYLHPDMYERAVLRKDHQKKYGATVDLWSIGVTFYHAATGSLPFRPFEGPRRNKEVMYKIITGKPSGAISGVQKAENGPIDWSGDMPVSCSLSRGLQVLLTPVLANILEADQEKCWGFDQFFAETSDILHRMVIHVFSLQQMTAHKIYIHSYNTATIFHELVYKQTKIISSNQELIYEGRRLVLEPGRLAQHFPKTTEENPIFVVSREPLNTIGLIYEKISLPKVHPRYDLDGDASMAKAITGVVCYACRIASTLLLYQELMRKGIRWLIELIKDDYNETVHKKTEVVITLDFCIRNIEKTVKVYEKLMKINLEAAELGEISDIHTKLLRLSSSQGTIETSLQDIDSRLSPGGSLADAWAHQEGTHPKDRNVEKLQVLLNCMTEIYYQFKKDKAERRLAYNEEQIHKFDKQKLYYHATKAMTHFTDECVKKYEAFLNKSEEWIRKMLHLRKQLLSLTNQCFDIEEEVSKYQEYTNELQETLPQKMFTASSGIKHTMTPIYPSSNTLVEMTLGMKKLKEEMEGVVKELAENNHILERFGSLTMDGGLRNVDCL
Assay: TBK1 protein kinase assay ([γ-33P]ATP, P81 filterplates)
Format: biochemical
Details: 50 μM ATP; read-out: Potency (TBK1 IC50 potency score)
pIC50: −log10 of the molar value. Structures can show the parent of a compound that is named as a salt.

Answered cases to consult:
>>> print(df.to_string())
                                   compound  result
0  O=C(NCCCNc1nc(Nc2ccc(CCO)cc2)ncc1C1CC1)C1CCC1  > 7.00
1  O=C(O)Cc1cccc(Nc2ncc(C3CC3)c(NCCCNC(=O)C3CCC3)n2)c1 [Example 95, Hydrochloride]  > 7.00
2  O=C(NCCCNc1nc(Nc2ccc(Br)nc2)ncc1C1CC1)C1CCC1  > 7.00

Look at this compound and give its reported pIC50. O=C(NCCCNc1nc(Nc2ccc3ncccc3c2)ncc1C1CC1)C1CCC1
> 7.00

Can you look up the measured pIC50 of O=C(NCCCNc1nc(Nc2ccccc2F)ncc1C1CC1)c1cccs1 for me?
6.00 to 7.00

Requested field: pIC50. Item: O=C(NCCCNc1nc(Nc2cccc(NC(=O)N3CCCC3)c2)ncc1C1CC1)c1cccs1
> 7.00

State the recorded pIC50 for this entry: O=C(NCCCNc1nc(Nc2cccc(F)c2)ncc1C1CC1)c1ccc(Cl)s1
6.00 to 7.00

Form field: reported pIC50 of O=C(NCCCNc1nc(Nc2cccc(-c3ccncc3)c2)ncc1C1CC1)C1CCC1
> 7.00
